Record form. Attribute: Kd. Fill in for each entry.
- Target entity: recombinant H5-HA, A/Vietnam/1203/2004 (H5N1) (Influenza A virus A/Vietnam/1203/2004 …, UniProt Q5EP31, strain)
- Assay method text: SPR
- Condition notes: both partners purified
Numbers only here, please. The scale is nM.

Item under review: R2b-D9 (VHH, source: E. coli WK6 periplasm, purified (Talon IMAC, Superdex 75 SEC)) VHH: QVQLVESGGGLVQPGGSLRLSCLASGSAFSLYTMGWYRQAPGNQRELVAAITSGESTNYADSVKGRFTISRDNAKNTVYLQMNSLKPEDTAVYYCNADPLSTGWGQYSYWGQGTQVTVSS . Reported Kd?
0.15

Request: R1a-A5 (VHH, also called R1a-A5 monovalent; source: E. coli WK6 periplasm, purified (Talon IMAC, Superdex 75 SEC)) VHH: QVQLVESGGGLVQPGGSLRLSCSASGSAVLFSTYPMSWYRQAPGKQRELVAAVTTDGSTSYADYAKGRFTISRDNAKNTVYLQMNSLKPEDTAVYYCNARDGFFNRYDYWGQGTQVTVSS
0.18

Can you handle R2b-E8 (VHH, source: E. coli WK6 periplasm, purified (Talon IMAC, Superdex 75 SEC)) VHH: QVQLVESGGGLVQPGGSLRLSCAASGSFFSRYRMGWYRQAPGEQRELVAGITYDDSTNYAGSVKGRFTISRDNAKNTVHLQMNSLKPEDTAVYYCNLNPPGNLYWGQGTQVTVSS next?
0.48

Same for R1a-B6 (VHH, also called R1a-B6 monovalent; source: E. coli WK6 periplasm, purified (Talon IMAC, Superdex 75 SEC)) VHH: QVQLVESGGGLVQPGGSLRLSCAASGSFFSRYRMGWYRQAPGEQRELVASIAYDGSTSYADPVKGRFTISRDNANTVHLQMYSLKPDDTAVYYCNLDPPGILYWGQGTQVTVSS
0.52

And R2a-G8 (VHH, source: E. coli WK6 periplasm, purified (Talon IMAC, Superdex 75 SEC)) VHH: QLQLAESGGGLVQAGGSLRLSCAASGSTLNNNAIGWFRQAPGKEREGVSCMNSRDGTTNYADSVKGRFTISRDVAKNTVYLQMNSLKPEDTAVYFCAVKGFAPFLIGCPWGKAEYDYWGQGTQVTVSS ?
9.07
